This listing pairs molecules with measured pKa.
protocol.summary: Acid dissociation constant, pKa of the compound
Type: physicochemical

- structure.as.smiles: "Nc1nc(-n2cc(C(=O)O)c(=O)c3cc(F)c([C@H]4C[C@@H](O)C4)c(Cl)c32)c(F)cc1F"
  pKa: 4.96
- structure.as.smiles: "Nc1nc(-n2cc(C(=O)O)c(=O)c3cc(F)c(N4CC(N)C4)c(Cl)c32)c(F)cc1F"
  pKa: 5.33
- structure.as.smiles: "Nc1nc(-n2cc(C(=O)O)c(=O)c3cc(F)c([C@H]4C[C@H](O)C4)c(Cl)c32)c(F)cc1F"
  pKa: 5.04
- structure.as.smiles: "Nc1nc(-n2cc(C(=O)O)c(=O)c3cc(F)c(N4CC(O)C4)c(Cl)c32)c(F)cc1F"
  pKa: 5.47

* * *

This section presents compounds with their documented inhibition at 100 µM values.
target.or.test.system: hERG (KCNH2) (Homo sapiens)
Sequence (Q12809 whole entry): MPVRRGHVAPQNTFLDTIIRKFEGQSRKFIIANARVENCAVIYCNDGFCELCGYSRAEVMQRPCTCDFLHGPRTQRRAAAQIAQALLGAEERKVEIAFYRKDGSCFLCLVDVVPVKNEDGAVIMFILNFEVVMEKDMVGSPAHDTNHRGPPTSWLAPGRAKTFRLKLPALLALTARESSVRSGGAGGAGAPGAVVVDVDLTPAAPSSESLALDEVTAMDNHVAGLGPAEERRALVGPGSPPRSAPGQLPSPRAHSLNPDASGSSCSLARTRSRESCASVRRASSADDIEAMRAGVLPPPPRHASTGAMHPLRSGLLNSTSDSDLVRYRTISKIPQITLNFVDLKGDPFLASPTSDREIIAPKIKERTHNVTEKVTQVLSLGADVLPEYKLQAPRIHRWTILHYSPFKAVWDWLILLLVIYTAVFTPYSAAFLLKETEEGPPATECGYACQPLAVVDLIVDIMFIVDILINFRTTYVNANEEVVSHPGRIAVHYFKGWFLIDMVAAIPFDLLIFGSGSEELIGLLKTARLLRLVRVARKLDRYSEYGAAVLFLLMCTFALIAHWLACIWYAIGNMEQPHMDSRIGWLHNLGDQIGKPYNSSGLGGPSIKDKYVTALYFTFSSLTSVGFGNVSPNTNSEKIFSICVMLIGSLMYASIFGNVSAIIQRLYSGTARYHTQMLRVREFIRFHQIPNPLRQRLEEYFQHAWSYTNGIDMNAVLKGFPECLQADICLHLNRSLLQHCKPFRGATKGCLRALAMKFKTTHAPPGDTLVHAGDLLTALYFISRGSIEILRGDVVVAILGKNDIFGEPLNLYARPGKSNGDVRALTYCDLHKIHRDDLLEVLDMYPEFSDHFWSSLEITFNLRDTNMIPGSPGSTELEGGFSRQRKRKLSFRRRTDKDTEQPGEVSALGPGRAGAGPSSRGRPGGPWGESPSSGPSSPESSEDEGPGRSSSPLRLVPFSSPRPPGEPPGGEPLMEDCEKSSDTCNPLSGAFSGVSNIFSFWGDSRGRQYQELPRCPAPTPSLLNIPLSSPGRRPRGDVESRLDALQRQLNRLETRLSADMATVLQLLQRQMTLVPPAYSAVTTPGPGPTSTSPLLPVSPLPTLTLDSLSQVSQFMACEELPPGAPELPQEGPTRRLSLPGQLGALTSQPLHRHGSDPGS
protocol.summary: Inhibition of human ERG at 100 uM relative to control

- compound: "Nc1nc(-n2cc(C(=O)O)c(=O)c3cc(F)c([C@H]4C[C@H](O)C4)c(Cl)c32)c(F)cc1F"
  inhibition at 100 µM: "18%"
- compound: "Nc1nc(-n2cc(C(=O)O)c(=O)c3cc(F)c([C@H]4C[C@@H](O)C4)c(Cl)c32)c(F)cc1F"
  inhibition at 100 µM: "15%"
- compound: "Nc1nc(-n2cc(C(=O)O)c(=O)c3cc(F)c(N4CC(O)C4)c(Cl)c32)c(F)cc1F [DELAFLOXACIN]"
  inhibition at 100 µM: "19%"

* * *

target.or.test.system: Cytochrome P450 2C9 (Homo sapiens)
Sequence (P11712 whole entry): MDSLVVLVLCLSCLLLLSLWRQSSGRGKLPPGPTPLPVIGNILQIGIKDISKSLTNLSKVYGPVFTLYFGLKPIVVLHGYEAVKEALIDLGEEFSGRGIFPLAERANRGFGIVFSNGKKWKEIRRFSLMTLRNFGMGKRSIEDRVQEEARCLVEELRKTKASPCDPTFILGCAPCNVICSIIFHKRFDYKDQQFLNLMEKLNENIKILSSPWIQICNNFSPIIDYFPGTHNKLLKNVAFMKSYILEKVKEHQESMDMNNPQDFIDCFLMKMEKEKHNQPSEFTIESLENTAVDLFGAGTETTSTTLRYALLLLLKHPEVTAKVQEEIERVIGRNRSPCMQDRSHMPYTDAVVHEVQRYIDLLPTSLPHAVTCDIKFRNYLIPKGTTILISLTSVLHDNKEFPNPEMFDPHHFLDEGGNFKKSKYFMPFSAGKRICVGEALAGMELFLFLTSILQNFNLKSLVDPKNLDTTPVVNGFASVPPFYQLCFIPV
Overview of reported IC50 across a group of compounds:

- structure.as.smiles: "Nc1nc(-n2cc(C(=O)O)c(=O)c3cc(F)c([C@H]4C[C@@H](O)C4)c(Cl)c32)c(F)cc1F"
  target.or.test.system: "Cytochrome P450 2C9 (Homo sapiens)"
  unit.of.measurement: "µM"
  bound.sign: ">"
  IC50: 50
- structure.as.smiles: "Nc1nc(-n2cc(C(=O)O)c(=O)c3cc(F)c(N4CC(N)C4)c(Cl)c32)c(F)cc1F"
  target.or.test.system: "Cytochrome P450 2C9 (Homo sapiens)"
  unit.of.measurement: "µM"
  bound.sign: "="
  IC50: 12.7
- structure.as.smiles: "Nc1nc(-n2cc(C(=O)O)c(=O)c3cc(F)c([C@H]4C[C@H](O)C4)c(Cl)c32)c(F)cc1F"
  target.or.test.system: "Cytochrome P450 2C9 (Homo sapiens)"
  unit.of.measurement: "µM"
  bound.sign: "="
  IC50: 41.7
- structure.as.smiles: "Nc1nc(-n2cc(C(=O)O)c(=O)c3cc(F)c(N4CC(O)C4)c(Cl)c32)c(F)cc1F"
  target.or.test.system: "Cytochrome P450 2C9 (Homo sapiens)"
  unit.of.measurement: "µM"
  bound.sign: ">"
  IC50: 50

* * *

protocol.summary: physchem
condition.context: octanol/water, pH 7.4
Description: Distribution coefficient, logD of the compound at pH 7.4

- structure.as.smiles: "Nc1nc(-n2cc(C(=O)O)c(=O)c3cc(F)c(N4CC(N)C4)c(Cl)c32)c(F)cc1F"
  logD: -0.3
- structure.as.smiles: "Nc1nc(-n2cc(C(=O)O)c(=O)c3cc(F)c(N4CC(O)C4)c(Cl)c32)c(F)cc1F"
  logD: 0.7
- structure.as.smiles: "Nc1nc(-n2cc(C(=O)O)c(=O)c3cc(F)c([C@H]4C[C@@H](O)C4)c(Cl)c32)c(F)cc1F"
  logD: 0.3
- structure.as.smiles: "Nc1nc(-n2cc(C(=O)O)c(=O)c3cc(F)c([C@H]4C[C@H](O)C4)c(Cl)c32)c(F)cc1F"
  logD: 0.3

* * *

protocol.summary: Oral bioavailability in human at 400 mg measured every 12 hrs
Assay type: ADME, organism-based
condition.context: in vivo

- structure.as.smiles: "COc1c(N2C[C@@H]3CCCN[C@@H]3C2)c(F)cc2c(=O)c(C(=O)O)cn(C3CC3)c12"
  unit.of.measurement: "%"
  bioavailability: 92

* * *

Target chain: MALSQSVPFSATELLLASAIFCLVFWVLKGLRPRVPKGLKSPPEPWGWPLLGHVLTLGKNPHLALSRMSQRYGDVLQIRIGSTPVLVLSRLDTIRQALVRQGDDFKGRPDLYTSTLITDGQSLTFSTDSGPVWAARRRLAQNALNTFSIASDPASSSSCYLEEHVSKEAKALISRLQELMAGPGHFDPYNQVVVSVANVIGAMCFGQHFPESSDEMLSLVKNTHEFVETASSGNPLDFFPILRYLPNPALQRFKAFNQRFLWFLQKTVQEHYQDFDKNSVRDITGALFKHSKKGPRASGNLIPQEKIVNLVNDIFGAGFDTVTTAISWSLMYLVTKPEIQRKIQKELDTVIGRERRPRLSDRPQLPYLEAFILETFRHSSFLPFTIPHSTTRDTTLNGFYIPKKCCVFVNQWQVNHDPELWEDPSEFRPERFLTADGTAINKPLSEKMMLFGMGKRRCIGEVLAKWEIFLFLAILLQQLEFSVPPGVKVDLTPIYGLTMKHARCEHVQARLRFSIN
property.name: IC50

- molecule: "Nc1nc(-n2cc(C(=O)O)c(=O)c3cc(F)c(N4CC(N)C4)c(Cl)c32)c(F)cc1F"
  result: "> 50 µM"
- molecule: "Nc1nc(-n2cc(C(=O)O)c(=O)c3cc(F)c([C@H]4C[C@H](O)C4)c(Cl)c32)c(F)cc1F"
  result: "> 50 µM"
- molecule: "Nc1nc(-n2cc(C(=O)O)c(=O)c3cc(F)c(N4CC(O)C4)c(Cl)c32)c(F)cc1F [DELAFLOXACIN]"
  result: "> 50 µM"
- molecule: "Nc1nc(-n2cc(C(=O)O)c(=O)c3cc(F)c([C@H]4C[C@@H](O)C4)c(Cl)c32)c(F)cc1F"
  result: "> 50 µM"

Taken from ChEMBL document CHEMBL4725368.
